Where these numbers come from: ChEMBL document CHEMBL1212880

test: Drug level in human HCT116 cells xenografted nude BALB/c mouse tumor at 80 mg/kg, iv after 24 hrs; format: ADME, organism-based, Neoplasm, HCT-116; parameters: dose 80 mg/kg, route intravenous; conditions: read-out: Drug uptake

{"smiles.entry": "CC(C)c1cc(C(=O)N2Cc3ccc(OCCN(C)C)cc3C2)c(O)cc1O", "concentration at 24 h [µM]": 11}

----------
biological target: hERG (KCNH2) (Homo sapiens, UniProt Q12809); assay: in vitro; conditions: HEK293 cells expressing hERG
Sequence (Q12809 whole entry): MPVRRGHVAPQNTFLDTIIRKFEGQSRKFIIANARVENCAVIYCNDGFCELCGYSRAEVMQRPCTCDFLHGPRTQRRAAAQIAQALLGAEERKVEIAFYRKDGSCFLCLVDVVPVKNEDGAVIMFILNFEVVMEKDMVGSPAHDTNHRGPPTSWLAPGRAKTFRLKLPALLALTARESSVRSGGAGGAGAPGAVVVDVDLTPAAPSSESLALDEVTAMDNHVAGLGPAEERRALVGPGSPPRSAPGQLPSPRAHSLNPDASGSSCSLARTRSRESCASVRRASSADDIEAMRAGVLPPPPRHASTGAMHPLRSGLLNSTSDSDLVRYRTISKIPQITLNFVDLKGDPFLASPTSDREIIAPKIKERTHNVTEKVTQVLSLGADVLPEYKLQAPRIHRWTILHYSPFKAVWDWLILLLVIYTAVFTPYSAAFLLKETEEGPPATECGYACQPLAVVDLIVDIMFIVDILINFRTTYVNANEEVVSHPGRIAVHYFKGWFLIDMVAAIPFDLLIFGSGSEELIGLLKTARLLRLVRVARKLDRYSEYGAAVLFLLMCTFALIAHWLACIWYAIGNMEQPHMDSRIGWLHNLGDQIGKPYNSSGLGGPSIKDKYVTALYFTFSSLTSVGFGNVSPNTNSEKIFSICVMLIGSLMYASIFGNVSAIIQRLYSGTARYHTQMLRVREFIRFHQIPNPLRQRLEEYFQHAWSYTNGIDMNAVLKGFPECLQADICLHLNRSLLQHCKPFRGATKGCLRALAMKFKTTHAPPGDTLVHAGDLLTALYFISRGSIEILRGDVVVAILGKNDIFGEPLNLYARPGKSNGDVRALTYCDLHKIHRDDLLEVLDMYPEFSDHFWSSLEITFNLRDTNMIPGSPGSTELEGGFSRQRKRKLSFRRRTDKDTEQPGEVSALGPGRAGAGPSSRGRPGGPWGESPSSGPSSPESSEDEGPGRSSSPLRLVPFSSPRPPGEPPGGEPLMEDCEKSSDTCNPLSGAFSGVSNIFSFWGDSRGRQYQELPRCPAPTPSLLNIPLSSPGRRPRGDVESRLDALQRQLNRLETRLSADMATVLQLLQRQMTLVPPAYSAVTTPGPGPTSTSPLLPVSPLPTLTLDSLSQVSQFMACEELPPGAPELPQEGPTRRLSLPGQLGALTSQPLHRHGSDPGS
Description: Inhibition of human ERG expressed in HEK293 cells at 3 uM by patch clamp assay
Rule: inhibition at 3 µM under 10% gives n, otherwise y.

{"smiles.entry": "CC(C)c1cc(C(=O)N2Cc3ccc(OCCNCC(C)(C)C)cc3C2)c(O)cc1O", "cat": "y"}
{"smiles.entry": "CC(C)c1cc(C(=O)N2Cc3ccc(OCCCN)cc3C2)c(O)cc1O", "cat": "n"}
{"smiles.entry": "CC(C)c1cc(C(=O)N2Cc3cccc(OCCN(C)C)c3C2)c(O)cc1O", "cat": "y"}
{"smiles.entry": "CC(C)c1cc(C(=O)N2Cc3ccc(CN4CCOCC4)cc3C2)c(O)cc1O", "cat": "y"}
{"smiles.entry": "CC(C)c1cc(C(=O)N2Cc3ccc(CN(C)C)cc3C2)c(O)cc1O", "cat": "n"}
{"smiles.entry": "CC(C)c1cc(C(=O)N2Cc3ccc(OCCNC4CCCC4)cc3C2)c(O)cc1O", "cat": "y"}
{"smiles.entry": "CC(C)c1cc(C(=O)N2Cc3ccc(NC4CCN(C)CC4)cc3C2)c(O)cc1O", "cat": "y"}
{"smiles.entry": "CC(C)c1cc(C(=O)N2Cc3ccc(CN4CCN(C)CC4)cc3C2)c(O)cc1O", "cat": "n"}
{"smiles.entry": "CC(C)c1cc(C(=O)N2Cc3ccc(OCCN)cc3C2)c(O)cc1O", "cat": "y"}

----------
assay: Half life in human HCT116 cells xenografted BALB/c mouse tumor at 60 mg/kg, ip; format: ADME, organism-based, Neoplasm, HCT-116; set-up: dose 60 mg/kg, route intraperitoneal

{"compound": "CC(C)c1cc(C(=O)N2Cc3ccc(CN4CCN(C)CC4)cc3C2)c(O)cc1O [ONALESPIB]", "reading.unit": "h", "half-life": 65}

----------
experiment: Intrinsic clearance in mouse liver S9 fraction; assay type: ADME, subcellular; settings: liver S9 fraction

{"smiles.entry": "CC(C)c1cc(C(=O)N2Cc3ccc(N4CCN(C)CC4)cc3C2)c(O)cc1O", "microsomal CLint / µL/min/mg": 41}

----------
assay: Volume of distribution at steady state in BALB/c mouse plasma at 2 to 10 mg/kg, iv; type: ADME, organism-based; set-up: dose 2-10 mg/kg, route intravenous; details: read-out: Vdss
parameter: Vd (L/kg)

{"smiles.entry": "CC(C)c1cc(C(=O)N2Cc3ccc(CN4CCN(C)CC4)cc3C2)c(O)cc1O", "reading.unit": "L/kg", "result": 11}

----------
molecular target: hERG (KCNH2) (Homo sapiens, UniProt Q12809); test: in vitro; settings: HEK293 cells expressing hERG
Collected inhibition at 3 µM values appear next to each entry.
parameter: inhibition at 3 µM

{"smiles.entry": "CC(C)c1cc(C(=O)N2Cc3ccc(C(=O)N4CCN(C)CC4)cc3C2)c(O)cc1O", "result": "21%"}
{"smiles.entry": "CC(C)c1cc(C(=O)N2Cc3ccc(N4CCN(C)CC4)cc3C2)c(O)cc1O", "result": "41%"}
{"smiles.entry": "CC(C)c1cc(C(=O)N2Cc3cccc(N4CCN(C)CC4)c3C2)c(O)cc1O", "result": "41%"}
{"smiles.entry": "CC(C)c1cc(C(=O)N2Cc3ccc(N4CCNCC4)cc3C2)c(O)cc1O", "result": "13%"}
{"smiles.entry": "CC(C)c1cc(C(=O)N2Cc3ccc(C4(O)CCN(C)CC4)cc3C2)c(O)cc1O", "result": "15%"}

----------
Entries and their logD values follow.
test: physchem; details: buffer, pH 7.4

{"smiles.entry": "CC(C)c1cc(C(=O)N2Cc3ccc(C(=O)N4CCN(C)CC4)cc3C2)c(O)cc1O", "logD": 2.1}
{"smiles.entry": "CC(C)c1cc(C(=O)N2Cc3cccc(OCCCN4CCOCC4)c3C2)c(O)cc1O", "logD": 3.55}
{"smiles.entry": "CC(C)c1cc(C(=O)N2Cc3ccc(OCCCN4CCOCC4)cc3C2)c(O)cc1O", "logD": 3.3}

----------
experiment: Half life in BALB/c mouse blood at 60 mg/kg, ip; format: ADME, organism-based; design: dose 60 mg/kg, route intraperitoneal

{"compound": "CC(C)c1cc(C(=O)N2Cc3ccc(CN4CCN(C)CC4)cc3C2)c(O)cc1O [ONALESPIB]", "half-life, h": 4.7}

----------
Below, each entry is listed alongside its reported inhibition at 3 µM.
molecular target: hERG (KCNH2) (Homo sapiens); test: in vitro; settings: HEK293 cells expressing hERG
parameter: inhibition at 3 µM

{"smiles.entry": "CC(C)c1cc(C(=O)N2Cc3ccc(OCCCN4CCOCC4)cc3C2)c(O)cc1O", "result": "51%"}
{"smiles.entry": "CC(C)c1cc(C(=O)N2Cc3ccc(OCCN(C)C)cc3C2)c(O)cc1O", "result": "45%"}
{"smiles.entry": "CC(C)c1cc(C(=O)N2Cc3cccc(OCCCN4CCOCC4)c3C2)c(O)cc1O", "result": "23%"}

----------
assay: Solubility of the compound in phosphate buffer at 15 mg at pH 6.5; assay type: physicochemical
Here, each record is paired with measured solubility data.
parameter: solubility

{"compound": "CC(C)c1cc(C(=O)N2Cc3ccc(NC4CCN(C)CC4)cc3C2)c(O)cc1O", "result": "< 3 mg/mL"}
{"compound": "CC(C)c1cc(C(=O)N2Cc3ccc(C4(O)CCN(C)CC4)cc3C2)c(O)cc1O", "result": "15 mg/mL"}
{"compound": "CC(C)c1cc(C(=O)N2Cc3ccc(CN4CCN(C)CC4)cc3C2)c(O)cc1O [ONALESPIB]", "result": "15 mg/mL"}

----------
target: CYP3A4 (Homo sapiens, UniProt P08684); assay: Inhibition of CYP3A4 at 10 uM; type: ADME
Sequence (P08684 whole entry): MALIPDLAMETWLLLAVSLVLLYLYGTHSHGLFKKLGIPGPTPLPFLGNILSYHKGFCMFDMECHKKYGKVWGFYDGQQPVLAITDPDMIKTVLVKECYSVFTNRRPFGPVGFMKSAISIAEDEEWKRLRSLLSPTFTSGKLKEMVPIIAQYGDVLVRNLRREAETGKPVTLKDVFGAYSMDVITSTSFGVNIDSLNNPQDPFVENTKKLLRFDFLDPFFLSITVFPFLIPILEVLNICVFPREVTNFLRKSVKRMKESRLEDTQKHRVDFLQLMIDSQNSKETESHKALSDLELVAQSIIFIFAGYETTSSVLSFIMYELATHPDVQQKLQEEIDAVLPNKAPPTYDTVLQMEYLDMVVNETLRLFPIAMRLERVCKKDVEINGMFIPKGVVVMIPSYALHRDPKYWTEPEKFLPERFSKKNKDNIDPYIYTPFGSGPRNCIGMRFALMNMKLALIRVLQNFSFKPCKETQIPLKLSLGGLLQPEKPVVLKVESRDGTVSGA
parameter: inhibition at 10 µM

{"smiles.entry": "CC(C)c1cc(C(=O)N2Cc3cccc(OCCN(C)C)c3C2)c(O)cc1O", "result": "< 50%"}
{"smiles.entry": "CC(C)c1cc(C(=O)N2Cc3ccc(OCCN(C)C)cc3C2)c(O)cc1O", "result": "34%"}
{"smiles.entry": "CC(C)c1cc(C(=O)N2Cc3cccc(N4CCN(C)CC4)c3C2)c(O)cc1O", "result": "< 50%"}

----------
target: CYP2C9 (Homo sapiens); assay: Inhibition of CYP2C9 at 10 uM; format: ADME
Sequence (P11712 whole entry): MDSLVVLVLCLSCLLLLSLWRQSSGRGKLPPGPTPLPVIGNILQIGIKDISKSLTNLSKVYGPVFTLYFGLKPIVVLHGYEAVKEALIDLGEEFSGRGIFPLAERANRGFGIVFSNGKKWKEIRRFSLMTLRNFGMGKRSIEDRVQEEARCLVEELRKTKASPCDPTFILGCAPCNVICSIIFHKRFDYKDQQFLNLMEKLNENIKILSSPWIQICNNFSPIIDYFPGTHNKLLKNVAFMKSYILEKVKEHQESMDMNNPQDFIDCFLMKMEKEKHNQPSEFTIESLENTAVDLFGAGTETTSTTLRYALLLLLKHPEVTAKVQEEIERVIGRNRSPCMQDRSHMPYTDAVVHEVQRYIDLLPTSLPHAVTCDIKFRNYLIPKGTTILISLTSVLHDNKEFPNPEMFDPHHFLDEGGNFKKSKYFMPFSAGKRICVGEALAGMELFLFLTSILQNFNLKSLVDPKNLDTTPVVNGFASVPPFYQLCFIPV
parameter: inhibition at 10 µM

{"compound": "CC(C)c1cc(C(=O)N2Cc3ccc(CN4CCN(C)CC4)cc3C2)c(O)cc1O [ONALESPIB]", "result": "< 50%"}
{"compound": "CC(C)c1cc(C(=O)N2Cc3ccc(CN(C)C)cc3C2)c(O)cc1O", "result": "50%"}

----------
assay: Clearance in BALB/c mouse plasma at 2 to 10 mg/kg, iv; format: ADME, organism-based; design: dose 2-10 mg/kg, route intravenous

{"smiles.entry": "CC(C)c1cc(C(=O)N2Cc3ccc(CN4CCN(C)CC4)cc3C2)c(O)cc1O", "clearance (mL/min/kg)": 113}

----------
The following molecules are listed with their measured pKa values.
assay: Dissociation constant, pKa of the compound; format: physicochemical

{"smiles.entry": "CC(C)c1cc(C(=O)N2Cc3ccc(CN4CCN(C)CC4)cc3C2)c(O)cc1O", "pKa": 7.7}
{"smiles.entry": "CC(C)c1cc(C(=O)N2Cc3ccc(CN(C)C)cc3C2)c(O)cc1O", "pKa": 9.2}
{"smiles.entry": "CC(C)c1cc(C(=O)N2Cc3ccc(CN4CCOCC4)cc3C2)c(O)cc1O", "pKa": 6.9}
{"smiles.entry": "CC(C)c1cc(C(=O)N2Cc3cccc(OCCCN4CCOCC4)c3C2)c(O)cc1O", "pKa": 7}

----------
target: CYP2C19 (Homo sapiens); experiment: Inhibition of CYP2C19 at 10 uM; assay type: ADME
Sequence (P33261 whole entry): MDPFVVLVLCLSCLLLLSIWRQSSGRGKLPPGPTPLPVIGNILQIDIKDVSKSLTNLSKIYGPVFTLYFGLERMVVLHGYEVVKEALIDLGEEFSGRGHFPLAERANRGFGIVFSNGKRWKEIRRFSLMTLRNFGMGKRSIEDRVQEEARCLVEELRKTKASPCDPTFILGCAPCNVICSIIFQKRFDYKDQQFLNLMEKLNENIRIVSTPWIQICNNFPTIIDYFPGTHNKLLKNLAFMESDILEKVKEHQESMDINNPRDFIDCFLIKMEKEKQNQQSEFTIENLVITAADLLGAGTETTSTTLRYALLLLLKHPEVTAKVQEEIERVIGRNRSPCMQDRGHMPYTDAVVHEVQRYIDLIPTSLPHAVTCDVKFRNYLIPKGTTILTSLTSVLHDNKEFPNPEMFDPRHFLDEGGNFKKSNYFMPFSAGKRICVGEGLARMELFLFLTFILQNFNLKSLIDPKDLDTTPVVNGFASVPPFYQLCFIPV
Property: inhibition at 10 µM; scope: individual molecules

{"molecule": "CC(C)c1cc(C(=O)N2Cc3ccc(CN(C)C)cc3C2)c(O)cc1O", "sign.qualifier": "=", "inhibition at 10 µM / %": 50}
{"molecule": "CC(C)c1cc(C(=O)N2Cc3ccc(CN4CCN(C)CC4)cc3C2)c(O)cc1O [ONALESPIB]", "sign.qualifier": "<", "inhibition at 10 µM / %": 50}

----------
target: UniProt:Q12809; test: in vitro; settings: HEK293 cells expressing hERG
Description: Inhibition of human ERG expressed in HEK293 cells at 30 uM by patch clamp assay
We use 50% as the dividing line for inhibition at 30 µM: on or above the line is rule met, below is rule not met.

{"compound": "CC(C)c1cc(C(=O)N2Cc3ccc(C4(O)CCN(C)CC4)cc3C2)c(O)cc1O", "cat": "rule not met"}
{"compound": "CC(C)c1cc(C(=O)N2Cc3ccc(OCCCN)cc3C2)c(O)cc1O", "cat": "rule not met"}
{"compound": "CC(C)c1cc(C(=O)N2Cc3cccc(OCCCN4CCOCC4)c3C2)c(O)cc1O", "cat": "rule met"}
{"compound": "CC(C)c1cc(C(=O)N2Cc3ccc(OCCN)cc3C2)c(O)cc1O", "cat": "rule met"}
{"compound": "CC(C)c1cc(C(=O)N2Cc3ccc(CN4CCOCC4)cc3C2)c(O)cc1O", "cat": "rule not met"}
{"compound": "CC(C)c1cc(C(=O)N2Cc3ccc(NC4CCNCC4)cc3C2)c(O)cc1O", "cat": "rule not met"}
{"compound": "CC(C)c1cc(C(=O)N2Cc3ccc(CN(C)C)cc3C2)c(O)cc1O", "cat": "rule met"}
{"compound": "CC(C)c1cc(C(=O)N2Cc3ccc(N4CCNCC4)cc3C2)c(O)cc1O", "cat": "rule met"}
{"compound": "CC(C)c1cc(C(=O)N2Cc3ccc(OCCN(C)C)cc3C2)c(O)cc1O", "cat": "rule met"}
{"compound": "CC(C)c1cc(C(=O)N2Cc3ccc(OCCNCC(C)(C)C)cc3C2)c(O)cc1O", "cat": "rule met"}
{"compound": "CC(C)c1cc(C(=O)N2Cc3ccc(OCCCN4CCOCC4)cc3C2)c(O)cc1O", "cat": "rule met"}
{"compound": "CC(C)c1cc(C(=O)N2Cc3cccc(N4CCN(C)CC4)c3C2)c(O)cc1O", "cat": "rule met"}
{"compound": "CC(C)c1cc(C(=O)N2Cc3ccc(N4CCN(C)CC4)cc3C2)c(O)cc1O", "cat": "rule met"}
{"compound": "CC(C)c1cc(C(=O)N2Cc3ccc(CN4CCN(C)CC4)cc3C2)c(O)cc1O [ONALESPIB]", "cat": "rule not met"}
{"compound": "CC(C)c1cc(C(=O)N2Cc3ccc(OCCNC4CCCC4)cc3C2)c(O)cc1O", "cat": "rule met"}
{"compound": "CC(C)c1cc(C(=O)N2Cc3cccc(OCCN(C)C)c3C2)c(O)cc1O", "cat": "rule met"}
{"compound": "CC(C)c1cc(C(=O)N2Cc3ccc(NC4CCN(C)CC4)cc3C2)c(O)cc1O", "cat": "rule met"}
